system: KB-C2; test: Inhibition of P-gp-mediated multidrug-resistance in human KB-C2 cells assessed as increase in colchicine-induced cytotoxicity at 5 ug/ml after 48 hrs by MTT assay; format: cell-based
assay readout: fold change (FC)
Lab note: record the figure alone, no unit after it.

# example entries with known answers
[
  {
    "molecule": "CC(=O)O[C@@H]1C[C@@H]2[C@@]3(C)CC[C@@H](OC(=O)CC(=O)N(C)C)C(C)(C)[C@@H]3CC[C@@]2(C)[C@]2(C)CC[C@H]([C@]3(C)CC[C@H](C(C)(C)O)O3)[C@@H]12",
    "fold change (FC)": 87.5
  },
  {
    "molecule": "CC(=O)O[C@@H]1C[C@@H]2[C@@]3(C)CC[C@@H](OC(=O)CC(N)=O)C(C)(C)[C@@H]3CC[C@@]2(C)[C@]2(C)CC[C@H]([C@]3(C)CC[C@H](C(C)(C)O)O3)[C@@H]12",
    "fold change (FC)": 49.3
  }
]

Pending molecule:
Kindly note: KB-C2, COC(=O)CC(=O)O[C@@H]1CC[C@]2(C)[C@H]3CC[C@@H]4[C@@H]([C@]5(C)CC[C@H](C(C)(C)O)O5)CC[C@@]4(C)[C@]3(C)CC[C@H]2C1(C)C , fold change (FC) value reported: 14.8
